ASSAY_SYSTEM: BRM (Homo sapiens, UniProt P51531)
Construct: made in house; host or cells: High Five insect cells
Sequence (P51531 whole entry): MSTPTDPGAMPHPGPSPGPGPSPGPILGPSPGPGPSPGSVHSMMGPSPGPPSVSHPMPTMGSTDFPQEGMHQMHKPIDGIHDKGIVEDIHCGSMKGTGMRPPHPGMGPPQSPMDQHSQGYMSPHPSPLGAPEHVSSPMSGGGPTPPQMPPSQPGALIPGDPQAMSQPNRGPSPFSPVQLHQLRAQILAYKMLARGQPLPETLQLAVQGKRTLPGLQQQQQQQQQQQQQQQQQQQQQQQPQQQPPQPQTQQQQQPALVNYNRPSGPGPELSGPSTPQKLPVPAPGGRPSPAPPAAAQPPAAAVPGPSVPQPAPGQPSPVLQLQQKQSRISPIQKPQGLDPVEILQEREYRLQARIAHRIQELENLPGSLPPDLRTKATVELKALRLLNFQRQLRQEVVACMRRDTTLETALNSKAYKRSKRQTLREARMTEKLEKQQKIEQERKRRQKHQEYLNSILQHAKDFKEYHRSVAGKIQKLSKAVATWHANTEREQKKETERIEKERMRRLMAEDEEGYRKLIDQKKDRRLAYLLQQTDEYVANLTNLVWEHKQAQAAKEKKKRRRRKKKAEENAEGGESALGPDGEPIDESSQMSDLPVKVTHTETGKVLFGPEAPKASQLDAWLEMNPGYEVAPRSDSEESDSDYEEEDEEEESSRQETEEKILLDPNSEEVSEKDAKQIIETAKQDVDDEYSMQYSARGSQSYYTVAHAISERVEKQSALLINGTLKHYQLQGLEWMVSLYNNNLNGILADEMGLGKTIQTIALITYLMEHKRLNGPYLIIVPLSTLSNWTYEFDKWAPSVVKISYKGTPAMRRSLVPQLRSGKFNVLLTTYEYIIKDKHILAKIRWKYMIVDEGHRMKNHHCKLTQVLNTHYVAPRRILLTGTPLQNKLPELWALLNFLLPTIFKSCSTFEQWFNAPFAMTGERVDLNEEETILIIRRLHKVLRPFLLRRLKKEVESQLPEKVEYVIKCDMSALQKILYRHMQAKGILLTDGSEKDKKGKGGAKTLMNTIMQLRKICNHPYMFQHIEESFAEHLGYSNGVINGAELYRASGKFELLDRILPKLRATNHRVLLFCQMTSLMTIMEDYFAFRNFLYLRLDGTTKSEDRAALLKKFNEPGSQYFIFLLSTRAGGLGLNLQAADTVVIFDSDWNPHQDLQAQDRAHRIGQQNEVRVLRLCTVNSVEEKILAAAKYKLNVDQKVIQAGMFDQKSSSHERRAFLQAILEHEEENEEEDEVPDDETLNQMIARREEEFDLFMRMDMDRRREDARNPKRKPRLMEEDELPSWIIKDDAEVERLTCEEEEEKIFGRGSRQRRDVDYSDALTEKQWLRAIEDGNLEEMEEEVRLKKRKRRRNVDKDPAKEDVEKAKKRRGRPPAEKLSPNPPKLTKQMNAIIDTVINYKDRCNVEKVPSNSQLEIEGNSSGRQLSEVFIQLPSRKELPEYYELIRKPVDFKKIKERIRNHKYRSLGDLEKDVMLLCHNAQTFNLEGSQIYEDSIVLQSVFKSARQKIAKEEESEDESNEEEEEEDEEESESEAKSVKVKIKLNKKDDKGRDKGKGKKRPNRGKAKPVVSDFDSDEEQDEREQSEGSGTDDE
PROCEDURE_TEXT: ATPase catalytic activity assay (ADP-Glo), BRM
Assay type: biochemical
EXPERIMENTAL_PARAMETERS: 30 nM BRM, 400 μM ATP, 20 nM salmon sperm DNA, read-out: BRM IP50 (μM)*
METRIC_NAME: IC50

// query Which measured IC50 value corresponds to Cc1nccc(-c2cccc(-c3csc(NC(=O)CNC(=O)c4cn(S(C)(=O)=O)c5c4CCCC5)n3)n2)n1 ?
// result 0.1 to 1 µM

// query Value lookup for IC50; key = Cc1nccc(-c2cccc(-c3csc(NC(=O)CNC(=O)c4cn(S(C)(=O)=O)c5ccccc45)n3)n2)n1
// result 0.1 to 1 µM

// query Item under review: Cc1cc(-c2cccc(-c3csc(NC(=O)CNC(=O)c4cn(S(C)(=O)=O)c5ccccc45)n3)n2)ncn1 . Reported IC50?
// result 0.1 to 1 µM

// query Entry Cc1nccc(-c2cccc(-c3csc(NC(=O)CNC(=O)c4cn(S(=O)(=O)C(C)C)c(C)c4C)n3)c2)n1 : reported IC50 = ?
// result < 0.1 µM

// query # IC50 lookup, item Cc1nccc(-c2cccc(-c3csc(NC(=O)CNC(=O)c4cc(C)n(S(=O)(=O)C(C)C)c4)n3)c2)n1
// result < 0.1 µM

// query Find the recorded IC50 belonging to Cc1cn(S(C)(=O)=O)cc1C(=O)NCC(=O)Nc1nc(-c2cccc(-c3ccncc3)c2)cs1 and report it.
// result < 0.1 µM
